tested.system: T1, human IL-2Rγ (common cytokine receptor γ-chain) (human, UniProt P31785 23-262, limits assumed)
T1 construct: Recombinant protein coated on the plate or immobilised on a CM5 chip; also called hu IL-2R; CD132
T1 sequence: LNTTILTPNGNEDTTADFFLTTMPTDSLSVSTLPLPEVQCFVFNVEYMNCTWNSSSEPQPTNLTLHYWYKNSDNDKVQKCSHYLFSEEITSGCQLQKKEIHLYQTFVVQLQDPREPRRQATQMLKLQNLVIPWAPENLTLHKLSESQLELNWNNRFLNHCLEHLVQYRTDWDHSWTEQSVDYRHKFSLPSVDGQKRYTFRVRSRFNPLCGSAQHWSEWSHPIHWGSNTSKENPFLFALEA
assay: SPR off-rate ranking, periplasmic extract on immobilised protein
The recorded koff of each item maps onto one of these classes: lower range (below 0.002 s⁻¹), middle range (0.002 s⁻¹ to below 0.02 s⁻¹), upper range (0.02 s⁻¹ or more)

Worked cases, answers included:
binder: FJ1427_P035MP04H10 (VHH, VHH in periplasmic extract; also called clone nr) VHH: QVQLVESGGGLVQAGGSLRLSCAPSGRTFVSGIMGWFRQAPGKEREFVARIILNNNSTRYIDSVKGRFTISRDSAKNTMYLQMDSLRPEDTAVYYCAARDRYGSGNSLSPSAYDYWGQGTQVTVSS
classification: middle range
//
binder: FJ1427_P035MP04E04 (VHH, VHH in periplasmic extract; also called clone nr) VHH: EVQLVESGGGWVQVGESLRLSCVPSGRTFVSGIMGWFRQAPGKEREFVARIILNSNSTRYTDSVKGRFTISRDSAKNTMYLQMNSLRPEDTAVYYCAARDRYGSGNSLSPSAYDYWGQGTQVTVSS
classification: middle range
//
binder: FJ1427_P035MP04A11 (VHH, VHH in periplasmic extract; also called clone nr) VHH: QVQLVESGGGLVQAGESLRLSCAASGPTASRVAVAWFRQVPGKEREFVAVVNRPGTMTKYADSVKGRFTISRDSAKNTVYLQMNSLKPEDTAVYYCAADSVPYGRPYYFQTSAGNYDYWGQGTQVTVSS
classification: middle range

Now examine the next entry.
For FJ1427_P035MP04B09 (VHH, VHH in periplasmic extract; also called clone nr) VHH: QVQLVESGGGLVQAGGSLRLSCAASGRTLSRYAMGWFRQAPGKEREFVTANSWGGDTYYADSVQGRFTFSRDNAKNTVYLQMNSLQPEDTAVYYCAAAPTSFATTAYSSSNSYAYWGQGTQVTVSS , which koff bin applies?
lower range
